Tested on: ATP;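 further: ATP exposure 15 min at 22 °C before imaging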
test details: switch fluorescence ratio, 500 uM ATP over buffer (Cy3 cluster intensity, sum of 5 cycles each) (fold (ratio)); higher = stronger signal-on switching upon ATP binding; sequences stand for … in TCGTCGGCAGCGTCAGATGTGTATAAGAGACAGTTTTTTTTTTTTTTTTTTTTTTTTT…TC
details: aptamer strand: ATP DNA aptamer (quencher-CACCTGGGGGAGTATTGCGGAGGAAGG + anchor), 100 nM annealed; ATP concentration: 500 uM
property name: switch fluorescence ratio

Query: What switch fluorescence ratio value was documented for this sequence, `GTAATTATGT` ?
Reply: 1.02

Query: What switch fluorescence ratio value was documented for this sequence, `AATATCTCTG` ?
Reply: 1.02

Query: What switch fluorescence ratio value was documented for this sequence, `GATATTGAGT` ?
Reply: 0.965

Query: What switch fluorescence ratio value was documented for this sequence, `TTTAACGGTG` ?
Reply: 1.02

Query: What switch fluorescence ratio value was documented for this sequence, `GGTTGTATCG` ?
Reply: 1

Query: What switch fluorescence ratio value was documented for this sequence, `ATGGGACGAT` ?
Reply: 0.995

Query: What switch fluorescence ratio value was documented for this sequence, `GATAGGTAAG` ?
Reply: 0.962

Query: What switch fluorescence ratio value was documented for this sequence, `GAATTTGGAA` ?
Reply: 1.01

Query: What switch fluorescence ratio value was documented for this sequence, `TTCGAGTTTT` ?
Reply: 0.967

Query: What switch fluorescence ratio value was documented for this sequence, `TTATCGATGG` ?
Reply: 0.987

Query: What switch fluorescence ratio value was documented for this sequence, `CAGCAGGGGC` ?
Reply: 1.11

Query: What switch fluorescence ratio value was documented for this sequence, `CGGGGGGCTG` ?
Reply: 0.995

Query: What switch fluorescence ratio value was documented for this sequence, `TGATGCTTT` ?
Reply: 1.01

Query: What switch fluorescence ratio value was documented for this sequence, `AGTAAGCCAC` ?
Reply: 1.05

Query: What switch fluorescence ratio value was documented for this sequence, `AAGTCCCCGG` ?
Reply: 1.18

Query: What switch fluorescence ratio value was documented for this sequence, `ACGCCATAGT` ?
Reply: 1.25

Query: What switch fluorescence ratio value was documented for this sequence, `GCAAAAGTTT` ?
Reply: 0.99

Query: What switch fluorescence ratio value was documented for this sequence, `GAGTATAGAT` ?
Reply: 1

Query: What switch fluorescence ratio value was documented for this sequence, `CGTAGAATGC` ?
Reply: 1.44

Query: What switch fluorescence ratio value was documented for this sequence, `TCGGGGTGTT` ?
Reply: 1

Query: What switch fluorescence ratio value was documented for this sequence, `GCGCTTGAAC` ?
Reply: 1.15

Query: What switch fluorescence ratio value was documented for this sequence, `AAGGGAAGTG` ?
Reply: 0.982

Query: What switch fluorescence ratio value was documented for this sequence, `ATCACATTCG` ?
Reply: 1.02

Query: What switch fluorescence ratio value was documented for this sequence, `GCGATTATAT` ?
Reply: 0.969

Query: What switch fluorescence ratio value was documented for this sequence, `AAGGTCCTCT` ?
Reply: 1

Query: What switch fluorescence ratio value was documented for this sequence, `AAGTGAGTGC` ?
Reply: 1

Query: What switch fluorescence ratio value was documented for this sequence, `GAGGTTCATT` ?
Reply: 1.09

Query: What switch fluorescence ratio value was documented for this sequence, `AGATTCGGTC` ?
Reply: 1

Query: What switch fluorescence ratio value was documented for this sequence, `ATGTGGAGAC` ?
Reply: 0.992

Query: What switch fluorescence ratio value was documented for this sequence, `CGGGGAAACA` ?
Reply: 0.994

Query: What switch fluorescence ratio value was documented for this sequence, `AGGATGTGCT` ?
Reply: 0.965

Query: What switch fluorescence ratio value was documented for this sequence, `ATTTGGGGGC` ?
Reply: 0.973

Query: What switch fluorescence ratio value was documented for this sequence, `GTTTTCTGAG` ?
Reply: 0.966

Query: What switch fluorescence ratio value was documented for this sequence, `GGTCAATGTG` ?
Reply: 0.987

Query: What switch fluorescence ratio value was documented for this sequence, `AGACGGAAAG` ?
Reply: 0.982

Query: What switch fluorescence ratio value was documented for this sequence, `ATTCGCGCTG` ?
Reply: 0.994

Query: What switch fluorescence ratio value was documented for this sequence, `GATTCGTTTT` ?
Reply: 1

Query: What switch fluorescence ratio value was documented for this sequence, `CGTTCTGGGG` ?
Reply: 0.984

Query: What switch fluorescence ratio value was documented for this sequence, `AAGGTAGGGG` ?
Reply: 0.986

Query: What switch fluorescence ratio value was documented for this sequence, `CAGAATCAAC` ?
Reply: 1.05

Query: What switch fluorescence ratio value was documented for this sequence, `AGAATAAAGG` ?
Reply: 0.993

Query: What switch fluorescence ratio value was documented for this sequence, `CGTTGTATAG` ?
Reply: 0.971

Query: What switch fluorescence ratio value was documented for this sequence, `CCGAGAGGGC` ?
Reply: 1.15

Query: What switch fluorescence ratio value was documented for this sequence, `GGGTGTGTGT` ?
Reply: 1.02

Query: What switch fluorescence ratio value was documented for this sequence, `AATCGTTAAA` ?
Reply: 0.981

Query: What switch fluorescence ratio value was documented for this sequence, `AGAACTTAAG` ?
Reply: 1.01

Query: What switch fluorescence ratio value was documented for this sequence, `TATTGGGTGA` ?
Reply: 0.992

Query: What switch fluorescence ratio value was documented for this sequence, `TTGCGGGTGA` ?
Reply: 1.01

Query: What switch fluorescence ratio value was documented for this sequence, `TAGACTTTTT` ?
Reply: 0.997

Query: What switch fluorescence ratio value was documented for this sequence, `AATCGGCTGG` ?
Reply: 1.01

Query: What switch fluorescence ratio value was documented for this sequence, `CTGGATCCTG` ?
Reply: 1.02

Query: What switch fluorescence ratio value was documented for this sequence, `GGGCGGGGGT` ?
Reply: 1.02

Query: What switch fluorescence ratio value was documented for this sequence, `TTTAACGATC` ?
Reply: 1.01

Query: What switch fluorescence ratio value was documented for this sequence, `AACTTTGTTT` ?
Reply: 0.983

Query: What switch fluorescence ratio value was documented for this sequence, `AGAGTAAAGC` ?
Reply: 0.996

Query: What switch fluorescence ratio value was documented for this sequence, `GAGGTGTCG` ?
Reply: 1.04

Query: What switch fluorescence ratio value was documented for this sequence, `GCAAATGTGT` ?
Reply: 0.969

Query: What switch fluorescence ratio value was documented for this sequence, `AAATTGTTG` ?
Reply: 1.02

Query: What switch fluorescence ratio value was documented for this sequence, `AAAGAGCCTT` ?
Reply: 1.13

Query: What switch fluorescence ratio value was documented for this sequence, `ATATGAAGAG` ?
Reply: 0.999

Query: What switch fluorescence ratio value was documented for this sequence, `TTGCCTGCGG` ?
Reply: 0.999

Query: What switch fluorescence ratio value was documented for this sequence, `CAGGTTGATG` ?
Reply: 1.01

Query: What switch fluorescence ratio value was documented for this sequence, `ACTACATTGG` ?
Reply: 1.03

Query: What switch fluorescence ratio value was documented for this sequence, `TGGATCTCAG` ?
Reply: 0.982

Query: What switch fluorescence ratio value was documented for this sequence, `CCGTTGAGTG` ?
Reply: 0.995

Query: What switch fluorescence ratio value was documented for this sequence, `TTCGTTTGGG` ?
Reply: 0.967

Query: What switch fluorescence ratio value was documented for this sequence, `TAAAAAGGGA` ?
Reply: 1.02

Query: What switch fluorescence ratio value was documented for this sequence, `GTAAATTAGT` ?
Reply: 1.02

Query: What switch fluorescence ratio value was documented for this sequence, `TCTATCTTTA` ?
Reply: 0.996

Query: What switch fluorescence ratio value was documented for this sequence, `TTAGGTTGGG` ?
Reply: 1.02

Query: What switch fluorescence ratio value was documented for this sequence, `CGGGGGTGG` ?
Reply: 1.02

Query: What switch fluorescence ratio value was documented for this sequence, `AAAAAAATTC` ?
Reply: 1.05

Query: What switch fluorescence ratio value was documented for this sequence, `TTCGGTGTGG` ?
Reply: 1.01

Query: What switch fluorescence ratio value was documented for this sequence, `TAAATGTGCG` ?
Reply: 0.996

Query: What switch fluorescence ratio value was documented for this sequence, `TCCGGGAATT` ?
Reply: 1.02

Query: What switch fluorescence ratio value was documented for this sequence, `AACCGGTAAT` ?
Reply: 1.01

Query: What switch fluorescence ratio value was documented for this sequence, `AACCGGTTAG` ?
Reply: 0.996

Query: What switch fluorescence ratio value was documented for this sequence, `GGGGTTGCCG` ?
Reply: 0.992

Query: What switch fluorescence ratio value was documented for this sequence, `TCATAGGTGG` ?
Reply: 1

Query: What switch fluorescence ratio value was documented for this sequence, `ACATCAAAAT` ?
Reply: 1

Query: What switch fluorescence ratio value was documented for this sequence, `AGAGCGTTAG` ?
Reply: 1.02

Query: What switch fluorescence ratio value was documented for this sequence, `TTAATGTGGC` ?
Reply: 0.986

Query: What switch fluorescence ratio value was documented for this sequence, `GCAGGGATCA` ?
Reply: 0.981

Query: What switch fluorescence ratio value was documented for this sequence, `CCGCTTGAGA` ?
Reply: 1.08

Query: What switch fluorescence ratio value was documented for this sequence, `TTTCGGAGCC` ?
Reply: 1.16

Query: What switch fluorescence ratio value was documented for this sequence, `ACTTAAAGTC` ?
Reply: 0.973

Where do these numbers come from? They come from the supplement of paper PMC10126150.
